- measurement protocol: BSK_4H_Eotaxin3: BioMAP Diversity Plus: 4H Assay for Eotaxin 3 Biomarker Activity (AID 2283000);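 note: CCL26 protein level quantified by ELISA in parallel with SRB cytotoxicity check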
- condition context: primary human endothelial cells (HUVEC); actives raise or lower the signal
Activity calls are given as the source filed them. Rule for the calls: active = hit-call score of the fitted dose curve at least 0.9, where 1 is the maximum; inactive = score below 0.9.
metric name: outcome

{"columns": ["smi", "reported measurement"],
 "data": [
  ["O=c1[nH]c(=O)[nH]c(=O)[nH]1", "inactive"],
  ["CC1(C)Cc2cccc(O)c2O1", "inactive"],
  ["CCOP(=S)(OCC)SCCS(=O)(=O)CC", "inactive"]
]}

###

- measurement protocol: BSK_LPS_SRB: Viability Assessment in the BioMAP Diversity Plus: LPS Assay (AID 2283079);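 note: total protein by sulforhodamine B absorbance as a cytotoxicity measure; measured one day after compound addition; fitted in both directions against DMSO so loss or gain of signal counts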
- condition context: primary human HUVEC with PBMC
Calls of active or inactive are those of the source. Rule for the calls: active = hit-call score of the fitted dose curve at least 0.9, where 1 is the maximum; inactive = score below 0.9.
Labels: 1.0 (active), 0.0 (inactive)

{"columns": ["molecule", "label value"],
 "data": [
  ["COC(=O)c1sccc1S(=O)(=O)NC(=O)Nc1nc(C)nc(OC)n1", 0.0],
  ["C[C@@H]1C[C@@H]([C@H](O)CC2CC(=O)NC(=O)C2)C(=O)[C@@H](C)C1", 1.0],
  ["Nc1cccc2ccccc12", 0.0],
  ["O=[N+]([O-])c1ccc2c3c(cccc13)CC2", 0.0],
  ["CC(=O)C(Cl)C(=O)N(C)C (centres undefined)", 0.0],
  ["COP(=S)(OC)Oc1ccc(Sc2ccc(OP(=S)(OC)OC)cc2)cc1", 1.0],
  ["CC(C)(c1ccccc1)c1ccc(O)c(C(C)(C)c2ccccc2)c1", 1.0],
  ["CN(C)N=O", 0.0],
  ["CC(C)(C)c1cc(O)ccc1O", 1.0],
  ["C[C@]12CCC(=O)C[C@@H]1CC[C@@H]1[C@@H]2CC[C@]2(C)[C@@H](O)CC[C@@H]12", 1.0],
  ["ClC1(Cl)C2(Cl)C3(Cl)C4(Cl)C(Cl)(Cl)C5(Cl)C3(Cl)C1(Cl)C5(Cl)C24Cl (centres undefined)", 0.0],
  ["CCSC(C)CC1CC(=O)C(C(CC)=NOC/C=C/Cl)=C(O)C1 (centres undefined)", 0.0],
  ["OCc1ccco1", 0.0],
  ["CC1(C)Cc2cccc(O)c2O1", 0.0],
  ["O=C(O)C(Cl)(Cl)Cl", 0.0],
  ["COC[C@H](C)N(C(=O)CCl)c1c(C)csc1C", 0.0],
  ["COc1cc(OC)nc(NC(=O)NS(=O)(=O)c2ncccc2C(=O)N(C)C)n1", 0.0],
  ["COC(=O)Cc1ccccc1", 0.0],
  ["CCOP(=S)(OCC)Oc1ccc(S(C)=O)cc1 (centres undefined)", 0.0],
  ["O=C(OC1CCCCC1)c1ccccc1C(=O)OC1CCCCC1", 1.0],
  ["CCNc1nc(NC(C)(C)C)nc(SC)n1", 0.0],
  ["CCOC(=O)/C=C(C)/C=C/C[C@@H](C)CCCC(C)C", 1.0],
  ["Cn1sc(Cl)cc1=O", 0.0],
  ["NC(=O)O", 0.0]
]}
